- Assay method text: yeast display, Sf9 membrane polyspecificity reagent, FACS + sequencing; frameworks hold sequencing errors
Parameter measured: polyreactivity (PSR sort gate)

Worked cases, polyreactivity (PSR sort gate) given:
I have this sequence here, `QVQLVESGGGLVQAGGSLRLSCAASGSTFRTYAMGWYRQAPGKERELVATITRTGGSTYYADSVKGRFTISRDNAKNTVYLQMNSLKPEDTAVYYCAARRSHQYRGPHFNYWGQGTLVTVSS` , and I need its recorded polyreactivity (PSR sort gate). low polyreactivity

I have this sequence here, `QVQLVESGGGLVQAGGSLRLSCAASGITFYWYTMGWYRQAPGKERELVADIEGDGGSTYYADSVKGRFTISRDNAKNTVYLQMNSLKPEDTAVYYCAAQVWPWGYDYWGQGTQVTVSS` , and I need its recorded polyreactivity (PSR sort gate). high polyreactivity

I have this sequence here, `QFQLVESGGGLVQAGGSLRLSCAASGSTFAFYAMGRYRQAPGKERELVPAINLGGGSTYYAASVKGRFTISRDNAKNTVYLQMNSLKPEDTAVYYCAADFWTISWPVFDTYEYWGQGTQVTVSS` , and I need its recorded polyreactivity (PSR sort gate). low polyreactivity

I have this sequence here, `QVQLVESGGGLVQAGGSLRLSCAASGSIFAWYGMGWYRQAPGKERELVAAISTAGSTNYADSVKGRFTISRDNAKNTVYLQMNSLKQEDSAVYYCAKKSSWYYPERFDYWGQGTQVNVSS` , and I need its recorded polyreactivity (PSR sort gate). low polyreactivity

I have this sequence here, `QVQLVESGGGLVQAGGSLRLSCAASGRTFIYYAMGWYRQAPGKERELVAAISRSGGSTYYADSVKGRFTISRDNAKNTVYLQMNSLKPEDTAVYYCAAADPLGYEYDSWGQGTQVTVSS` , and I need its recorded polyreactivity (PSR sort gate). high polyreactivity

Give measured polyreactivity (PSR sort gate) for every item shown.
1. QLQLVESGGGLVQAGGSLRLSCAASGLIFTTNAMGWYRQAPGKEREFVAAISPSGGSTYYADSVKGRFTISRDNAKNTVYLQMKSLKPEDTAVYYCAKRPYVGYDWGQGTQVTVSS
2. QVQLVESGGGLVQAGGSLRLSCAASGIIFGEYAMGWYRQAPGKERELVAAISGSGSRTYYADSVKGRFTISRDNAKNTVYLQMNSLKPEDTAVYYCAVKGGGTRYGYWGQGTQVTVSS
3. QVQLVESGGGLVQAGGSLRLSCAASGSTFGINAMGWYRQAPGKERELVASITRRGGSTYYADSVKGRFTISRDNAKNTVYLQMHSLKPEDTAVYYCAAGNKRRFEGDYWGQGTQVTVSS
4. QVHLVDSGGGLVQAGGSLRLSCAASGRTSIRYAMAWYRQAPGKERELVAAITYAAGSTYYADSVTGRFTISRDNAKNTVYLQMNSLKPEDTAVYYCNARVYYHYDFWGQGTQVTVSS
5. QVQLVESGGGLVQAGGSLRLSCAASGRTFTRYAMGWYRQAPGKERELVAAISYIGGRTNYADSVKGRFTISRDNAKNTVYLQMNSLKPEDTAVYYCAASRPWVYYDGLDYWGQGTQVTVSS
6. QVQLVESGGGLVQAGGSLRLSSAASGSIFSAYAMGWYRQAPGKERELVATISRSGASTYYADSVKGRFTISRDNAKNTVYLQMNSLKPEDTAVYYCAARYYSPAYRLGGVDYWGQGTQVTVSS

1: high polyreactivity; 2: high polyreactivity; 3: high polyreactivity; 4: high polyreactivity; 5: high polyreactivity; 6: high polyreactivity
